B1: TPR 5TU (parent)
chain: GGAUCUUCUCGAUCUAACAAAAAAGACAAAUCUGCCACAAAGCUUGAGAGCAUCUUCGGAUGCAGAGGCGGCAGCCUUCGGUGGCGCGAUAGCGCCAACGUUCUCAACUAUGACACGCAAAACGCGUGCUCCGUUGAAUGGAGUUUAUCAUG

Variants of: B1
assay: polymerase ribozyme fitness, log enrichment relative to wild type (log ratio); higher = more active; in vitro selection for triplet polymerase activity
This sample holds only a part of the variants without activity.
The following variants are listed with their measured polymerase ribozyme fitness (log ratio) values.
// keep it numeric: no unit symbol after the value

A40C A137G: -1.42
G59A U127A: -3.81
G50A U56A C87U G124A: -2.44
A47U C95U A115G: -2.68
A64U: -3.99
G83A C125A: -0.344
A39G C54U C85U: -1.83
U53A G136U U144G: -1.85

Would you kindly share the measured polymerase ribozyme fitness (log ratio) for G58C A97U ?
-0.712

polymerase ribozyme fitness (log ratio) lookup needed for G58C G84U A97U , thanks.
-3.58

Please look up its polymerase ribozyme fitness (log ratio): G50U A150G
-2.11

So what does the record say about polymerase ribozyme fitness (log ratio) for C32U G59C A89C G94C ?
-3.87

# get_value(readout='polymerase ribozyme fitness (log ratio)', item= G50U A113C U139G )
-3.93

The origin of these recorded values is the RNAGym collection of RNA variant scans (doi:10.1073/pnas.2313332121).
